Entry source: patent US20240208992A1

Can you tell me Emax for the items I'm about to list?
target: human F508del-CFTR (Homo sapiens, UniProt P13569, DEL508-508); experiment: F508del-CFTR cell surface expression (corrector activity), DiscoveRx ß-galactosidase complementation chemiluminescence assay in recombinant U2OS cell line; conditions: U2OS, in relation to Emax of corrector lumacaftor (=100%); arithmetic mean values
Sequence (P13569 with tags, fused parts or gaps DEL508-508): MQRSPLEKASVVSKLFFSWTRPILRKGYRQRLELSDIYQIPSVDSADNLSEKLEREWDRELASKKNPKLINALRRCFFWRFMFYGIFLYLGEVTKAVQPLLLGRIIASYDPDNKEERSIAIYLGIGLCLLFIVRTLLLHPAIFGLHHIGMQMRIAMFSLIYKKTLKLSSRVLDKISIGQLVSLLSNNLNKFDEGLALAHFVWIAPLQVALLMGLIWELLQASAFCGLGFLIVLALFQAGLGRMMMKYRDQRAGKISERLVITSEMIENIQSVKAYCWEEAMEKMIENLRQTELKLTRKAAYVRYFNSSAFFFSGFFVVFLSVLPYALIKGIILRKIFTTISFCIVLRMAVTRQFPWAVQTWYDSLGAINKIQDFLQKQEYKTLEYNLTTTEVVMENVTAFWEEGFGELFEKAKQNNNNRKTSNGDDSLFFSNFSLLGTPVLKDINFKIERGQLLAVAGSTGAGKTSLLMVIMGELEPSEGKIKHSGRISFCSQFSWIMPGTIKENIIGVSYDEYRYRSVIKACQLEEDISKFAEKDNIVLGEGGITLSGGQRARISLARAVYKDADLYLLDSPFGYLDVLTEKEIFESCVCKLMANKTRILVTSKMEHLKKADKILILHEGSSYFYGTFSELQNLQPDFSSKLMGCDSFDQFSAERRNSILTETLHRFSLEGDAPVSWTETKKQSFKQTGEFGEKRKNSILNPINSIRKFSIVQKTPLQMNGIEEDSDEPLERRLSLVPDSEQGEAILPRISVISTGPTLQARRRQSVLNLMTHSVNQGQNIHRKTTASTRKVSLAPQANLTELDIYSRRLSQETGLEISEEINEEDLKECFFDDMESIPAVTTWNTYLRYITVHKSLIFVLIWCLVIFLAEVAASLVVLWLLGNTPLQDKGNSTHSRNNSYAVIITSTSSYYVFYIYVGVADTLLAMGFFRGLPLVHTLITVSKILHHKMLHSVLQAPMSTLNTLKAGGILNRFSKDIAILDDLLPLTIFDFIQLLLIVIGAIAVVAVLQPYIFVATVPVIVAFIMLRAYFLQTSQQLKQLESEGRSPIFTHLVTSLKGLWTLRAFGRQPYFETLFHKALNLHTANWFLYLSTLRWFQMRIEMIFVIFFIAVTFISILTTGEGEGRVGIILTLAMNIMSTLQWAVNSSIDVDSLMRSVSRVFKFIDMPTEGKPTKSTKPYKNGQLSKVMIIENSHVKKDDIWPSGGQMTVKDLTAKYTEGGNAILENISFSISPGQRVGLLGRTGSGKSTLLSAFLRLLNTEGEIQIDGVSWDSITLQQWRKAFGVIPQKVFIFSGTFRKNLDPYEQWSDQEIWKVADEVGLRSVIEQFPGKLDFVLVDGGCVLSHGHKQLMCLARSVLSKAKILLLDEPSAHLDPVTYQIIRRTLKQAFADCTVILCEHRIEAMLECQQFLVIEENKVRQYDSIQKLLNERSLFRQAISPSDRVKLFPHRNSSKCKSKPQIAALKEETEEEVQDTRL
One number for each entry, in %.

Worked examples follow.
Exam item: Please give the measured Emax for this molecule: CC(C)C[C@H]1C(=O)N2CCCC[C@H]2C(=O)N[C@H](Cc2ccccc2)COc2cnc3c(F)cccc3c2C(=O)N[C@H](C(=O)NCCc2cc(C3CC3)on2)CC(=O)N1C [Example 497]
Marked response: 171

Exam item: Please give the measured Emax for this molecule: Cc1cc(CCNC(=O)[C@@H]2CC(=O)N(C)[C@@H](CC(C)C)C(=O)N3CCN(CC(C)C)C[C@@H]3C(=O)N[C@H](Cc3ccccc3)COc3cnc4ccccc4c3C(=O)N2)on1 [Example 622]
Marked response: 296

Exam item: Please give the measured Emax for this molecule: Cc1cc(CCNC(=O)[C@@H]2CC(=O)N(C)[C@@H](CC(C)C)C(=O)N(C[C@@H]3COc4ccccc4C3)CC(=O)N[C@H](Cc3ccccc3)COc3cnc4ccccc4c3C(=O)N2)on1 [Example 705]
Marked response: 193

Exam item: Please give the measured Emax for this molecule: Cc1cc(CCNC(=O)[C@@H]2CC(=O)N(C)[C@@H](CC(C)C)C(=O)N(C)C3(CCC3)C(=O)N[C@H](Cc3ccccc3)COc3cnc4ccc(F)cc4c3C(=O)N2)on1 [Example 690]
Marked response: 401

Exam item: Please give the measured Emax for this molecule: COc1cc2c(cc1OC)C(=O)N[C@H](C(=O)NCCc1ccc3c(c1)OCCC3)CC(=O)N(C)[C@@H](CC(C)C)C(=O)N(CCC1CCCCC1)CC(=O)N[C@H](Cc1ccccc1)CO2 [Example 596]
Marked response: 195

Hi there! I need Emax for each item below, if you can.
1. COc1nccc2c1C(=O)N[C@H](C(=O)NCCc1cc(C)no1)CC(=O)N(C)[C@@H](CC(C)C)C(=O)N1CCN(c3ccccc3)C[C@@H]1C(=O)N[C@H](Cc1ccccc1)CO2 [Example 542]
2. CCOc1cccc(CCNC(=O)[C@@H]2CC(=O)N(C)[C@@H](CC(C)C)C(=O)N3CCN(C4CC4)C[C@@H]3C(=O)N[C@H](Cc3ccccc3)COc3cnc4ccccc4c3C(=O)N2)c1 [Example 400]
3. [2H]C([2H])([2H])Oc1nc(C)cc2c1C(=O)N[C@H](C(=O)NCCc1noc(C3CC3)n1)CC(=O)N(C)[C@@H](CC(C)C)C(=O)N1CCCC[C@@H]1C(=O)N[C@H](Cc1ccccc1)CO2 [Example 666]
4. COc1nccc2c1C(=O)N[C@H](C(=O)NCCc1ccc(-n3nccn3)cc1)CC(=O)N(C)[C@@H](CC(C)C)C(=O)N1CCCC[C@@H]1C(=O)N[C@H](Cc1ccccc1)CO2 [Example 468]
5. COc1cccc(CCNC(=O)[C@@H]2CC(=O)N(C)[C@@H](CC(C)C)C(=O)N3CCCC[C@@H]3C(=O)N[C@H](Cc3ccccc3)COc3cc(OC)cc(OC)c3C(=O)N2)c1 [Example 602]

Marked response:
1. 334
2. 292
3. 311
4. 361
5. 299

* * *

molecular target: human F508del-CFTR (Homo sapiens, UniProt P13569, DEL508-508); experiment: F508del-CFTR cell surface expression (corrector activity), DiscoveRx ß-galactosidase complementation chemiluminescence assay in recombinant U2OS cell line; conditions: EC50, F508del-CFTR cell surface expression, U2OS cells, 16h compound incubation; geomean values;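 note: U2OS cells co-expressing ProLink-tagged F508del-CFTR and a membrane-anchored enzyme acceptor, where more surface CFTR restores β-galactosidase activity measured by chemiluminescence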
Can you tell me pEC50 for the items I'm about to list?
Give bare numbers, as −log10 of the molar value.

Worked examples follow.
Exam item: Please give the measured pEC50 for this molecule: COc1cccc(CCNC(=O)[C@@H]2CC(=O)N(C)[C@@H](CC(C)C)C(=O)N(C)C(C)(C)C(=O)N[C@H](Cc3ccccc3)COc3cnc4ccccc4c3C(=O)N2)c1 [Example 503]
Marked response: 6.11

Exam item: Please give the measured pEC50 for this molecule: CC(C)C[C@H]1C(=O)N2CCCC[C@@H]2C(=O)N[C@H](Cc2ccccc2)COc2nc3ccccn3c2C(=O)N[C@H](C(=O)NCCc2c(F)cccc2F)CC(=O)N1C [Example 484]
Marked response: 6.60

Exam item: Please give the measured pEC50 for this molecule: CC(C)C[C@H]1C(=O)N(C)[C@H](C)C(=O)N[C@H](Cc2ccccc2)COc2ccc3ncc(F)cc3c2C(=O)N[C@H](C(=O)NCCc2cc(C3CC3)no2)CC(=O)N1C [Example 797]
Marked response: 6.40

Exam item: Please give the measured pEC50 for this molecule: COc1cccc(CCNC(=O)[C@@H]2CC(=O)N(C)[C@@H](CC(C)C)C(=O)N3CCCC[C@@H]3C(=O)N[C@H](Cc3ccccc3)COc3ccc(OC)cc3C(=O)N2)c1 [Example 587]
Marked response: 6.38

Exam item: Please give the measured pEC50 for this molecule: Cc1cc(CCNC(=O)[C@@H]2CC(=O)N(C)[C@@H](CC(C)C)C(=O)N3CCN(CC(C)C)C[C@H]3C(=O)N[C@H](Cc3ccccc3)COc3ccc4nc(C)oc4c3C(=O)N2)on1 [Example 621]
Marked response: 6.47

Exam item: Please give the measured pEC50 for this molecule: COc1cccc(CCNC(=O)[C@@H]2CC(=O)N(C)[C@@H](CC(C)C)C(=O)N3CCN(C(C)C)C[C@@H]3C(=O)N[C@H](Cc3ccccc3)COc3cccc(OC)c3C(=O)N2)c1 [Example 611]
Marked response: 6.46

Exam item: Please give the measured pEC50 for this molecule: CC(C)C[C@H]1C(=O)N2CCCC[C@H]2C(=O)N[C@H](Cc2ccccc2)COc2cnc3ccccc3c2C(=O)N[C@H](C(=O)NCCc2ccc(-n3nccn3)cc2)CC(=O)N1C [Example 464]
Marked response: 6.50

Exam item: Please give the measured pEC50 for this molecule: CC(C)C[C@H]1C(=O)N(C)C2(CC2)C(=O)N[C@H](Cc2ccccc2)COc2cnc3ccc(F)cc3c2C(=O)N[C@H](C(=O)NCCc2cc(C3CC3)no2)CC(=O)N1C [Example 519]
Marked response: 6.74

Exam item: Please give the measured pEC50 for this molecule: CC(C)C[C@H]1C(=O)N(C)C2(CC2)C(=O)N[C@H](Cc2ccccc2)COc2cnc3ccccc3c2C(=O)N[C@H](C(=O)NCCc2nc(Cc3ccccc3)no2)CC(=O)N1C [Example 763]
Marked response: 6.58

Exam item: Please give the measured pEC50 for this molecule: CC(C)C[C@H]1C(=O)N2CCCC[C@@H]2C(=O)N[C@H](Cc2ccccc2)COc2cnc3cccc(F)c3c2C(=O)N[C@H](C(=O)NCCc2cc(C3CC3)no2)CC(=O)N1C [Example 660]
Marked response: 7.04

Hi there! I need pEC50 for each item below, if you can.
1. COc1nccc2c1C(=O)N[C@H](C(=O)NCCc1cc(C3CC3)no1)CC(=O)N(C)[C@@H](CC(C)C)C(=O)N1CC[C@H](c3ccccc3)C[C@@H]1C(=O)N[C@H](Cc1ccccc1)CO2 [Example 673]
2. COc1cccc(CCNC(=O)[C@@H]2CC(=O)N(C)[C@@H](CC(C)C)C(=O)N3CCN(S(=O)(=O)CCCN4CCOCC4)C[C@@H]3C(=O)N[C@H](Cc3ccccc3)COc3ccc4ccccc4c3C(=O)N2)c1 [Example 730]
3. COc1cccc(CCNC(=O)[C@@H]2CC(=O)N(C)[C@@H](CC(C)C)C(=O)N3CCN(C(=O)CC(C)C)C[C@@H]3C(=O)N[C@H](Cc3ccccc3)COc3ccc4ccccc4c3C(=O)N2)c1 [Example 751]
4. CC(C)C[C@H]1C(=O)N2CCN(c3ccccc3)C[C@H]2C(=O)N[C@H](Cc2ccccc2)COc2cnc3ccc(F)cc3c2C(=O)N[C@H](C(=O)NCCc2cc(C3CC3)no2)CC(=O)N1C [Example 524]

Marked response:
7.17
6.23
6.66
7.22

Hi there! I need pEC50 for each item below, if you can.
1. Cc1nc2ccc3c(c2o1)C(=O)N[C@H](C(=O)NCCc1nc2c(s1)CCC2)CC(=O)N(C)[C@@H](CC(C)C)C(=O)N1CCN(C2CC2)C[C@@H]1C(=O)N[C@H](Cc1ccccc1)CO3 [Example 420]
2. Cc1cc(CCNC(=O)[C@@H]2CC(=O)N(C)[C@@H](CC(C)C)C(=O)N(C)[C@@H](Cc3cccc4ccccc34)C(=O)N[C@H](Cc3ccccc3)COc3cnc4ccccc4c3C(=O)N2)on1 [Example 695]
3. COCCS(=O)(=O)N1CCN2C(=O)[C@H](CC(C)C)N(C)C(=O)C[C@@H](C(=O)NCCc3cccc(OC)c3)NC(=O)c3c(ccc4ccccc34)OC[C@@H](Cc3ccccc3)NC(=O)[C@H]2C1 [Example 733]
4. COc1cc2c(cn1)OC[C@@H](Cc1ccccc1)NC(=O)C1(CC1)N(C)C(=O)[C@H](CC(C)C)N(C)C(=O)C[C@@H](C(=O)NCCc1noc(C3CC3)n1)NC2=O [Example 649]

Marked response:
1: 6.36; 2: 6.70; 3: 6.46; 4: 6.04

Hi there! I need pEC50 for each item below, if you can.
1. COc1nccc2c1C(=O)N[C@H](C(=O)NCCc1cccc(-n3nccn3)c1)CC(=O)N(C)[C@@H](CC(C)C)C(=O)N1CCCC[C@H]1C(=O)N[C@H](Cc1ccccc1)CO2 [Example 467]
2. CC(C)C[C@H]1C(=O)N2CCCC[C@@H]2C(=O)N[C@H](Cc2ccccc2)COc2cnc3ccc(F)cc3c2C(=O)N[C@H](C(=O)NCCc2c(F)cccc2F)CC(=O)N1C [Example 636]

Marked response:
[6.03, 7.04]
